Assay Info: S16 Schwann cell viability assay (CellTiter-Glo assay) (AID 624031); further: nearly all actives have a fitted effect of over 70% in size
Assay Conditions: S16 rat Schwann cells viability, 24 h; series mostly up to 25.7 µM
Results filed as inconclusive are left out. Calls of active or inactive are those of the source. The call rests on the fitted dose curve; in most records, active means well fitted cell-killing curve with a large enough effect; inconclusive means small, poorly fitted or top-dose-only effect, or effect the other way; inactive means flat fitted curve, though single readings scatter.
Possible outcomes: True (active), False (inactive)

Molecule: Cc1cc(/C=C\c2ccc3cc(N(C)C)ccc3[n+]2C)c(C)n1-c1ccccc1
Class Assignment: True
--
Molecule: CCN(CC)CCC[C@H](C)Nc1ccnc2cc(Cl)ccc12
Class Assignment: False
--
Molecule: CN[C@@H](CC(C)C)C(=O)N[C@@H]1C(=O)N[C@H](CC(N)=O)C(=O)N[C@@H]2C(=O)N[C@H]3C(=O)N[C@H](C(=O)N[C@H](C(=O)O)c4cc(O)cc(O)c4-c4cc3ccc4O)[C@H](O)c3ccc(c(Cl)c3)Oc3cc2cc(c3O[C@H]2O[C@@H](CO)[C@@H](O)[C@@H](O)[C@@H]2O[C@@H]2C[C@](C)(N)[C@H](O)[C@H](C)O2)Oc2ccc(cc2Cl)[C@@H]1O
Class Assignment: False
--
Molecule: COCCc1ccc(OC[C@H](O)CNC(C)C)cc1
Class Assignment: False
--
Molecule: O=C(c1ccccc1)c1ccc2n1CC[C@H]2C(=O)O
Class Assignment: False
--
Molecule: CCCN[C@@H](C)C(=O)Nc1ccccc1C
Class Assignment: False
--
Molecule: CC[C@]1(C)CC(=O)NC1=O
Class Assignment: False
--
Molecule: CCCN(CCC)C(=O)[C@@H](CCC(=O)O)NC(=O)c1ccccc1
Class Assignment: False
--
Molecule: C[C@@H]1CCC[C@H](C)N1NC(=O)c1ccc(Cl)c(S(N)(=O)=O)c1
Class Assignment: False
--
Molecule: CC(C)(O/N=C(\C(=O)N[C@@H]1C(=O)N2C(C(=O)[O-])=C(C[n+]3ccccc3)CS[C@@H]12)c1csc(N)n1)C(=O)O
Class Assignment: False
--
Molecule: C[C@@H](C(=O)O)c1cccc(C(=O)c2ccccc2)c1
Class Assignment: False
--
Molecule: O=c1[nH]cnc2c1ncn2C1OC(CO)C(O)C1O (stereo not drawn)
Class Assignment: False
--
Molecule: C[C@@H]1COc2c(N3CCN(C)CC3)c(F)cc3c(=O)c(C(=O)O)cn1c23
Class Assignment: False
--
Molecule: O=c1[nH]c(=O)n([C@@H]2C[C@H](O)[C@H](CO)O2)cc1I
Class Assignment: False
--
Molecule: C[C@@H](CCc1ccccc1)NC[C@H](O)c1ccc(O)c(C(N)=O)c1
Class Assignment: False
--
Molecule: COc1c(O)cc2c(c1O)[C@@H]1O[C@@H](CO)[C@@H](O)[C@@H](O)[C@@H]1OC2=O
Class Assignment: False
--
Molecule: C/C=C\C(=O)N(CC)c1ccccc1C
Class Assignment: False
--
Molecule: CN[C@@H]1[C@H](O[C@@H]2O[C@H](CO)[C@@H](N)[C@H](O)[C@@H]2O)O[C@H]2C[C@@H](N)[C@@H](O[C@H]3[C@@H](O)[C@H](O)[C@H](N)C[C@@H]3N)O[C@H]2[C@H]1O
Class Assignment: False

----------
System: CP335
Assay Info: qHTS profiling for inhibitors of Plasmodium falciparum proliferation (AID 504749); further: nearly all actives have a fitted effect of over 60% in size
Assay Conditions: P. falciparum in erythrocytes, SYBR Green DNA, 72 h; series mostly up to 12.8 µM
Inconclusive results are not listed. Active and inactive are the calls of the source. The call rests on the fitted dose curve; in most records, active means well fitted inhibition curve with a large enough effect; inconclusive means small, poorly fitted or top-dose-only effect; inactive means flat fitted curve, though single readings scatter.
Possible outcomes: class 1 (active), class 0 (inactive)

Molecule: CC(=O)Nc1c(I)c(C(=O)N[C@H]2[C@@H](O)[C@H](O)[C@H](CO)O[C@@H]2O)c(I)c(N(C)C(C)=O)c1I
Test System: CP335
Class Assignment: class 0

Molecule: C[C@@H]1COc2c(N3CCN(C)CC3)c(F)cc3c(=O)c(C(=O)O)cn1c23
Test System: CP335
Class Assignment: class 0

Molecule: O=C(Cc1cccs1)NC1C(=O)N2C(C(=O)[O-])=C(C[n+]3ccccc3)CSC12 (centres undefined)
Test System: CP335
Class Assignment: class 0

Molecule: COc1ccc(C[C@@H]2c3cc(OC)c(OC)cc3CC[N@+]2(C)CCC(=O)OCCCCCOC(=O)CC[N@@+]2(C)CCc3cc(OC)c(OC)cc3[C@H]2Cc2ccc(OC)c(OC)c2)cc1OC
Test System: CP335
Class Assignment: class 0

Molecule: COc1ccccc1OC[C@H](O)COC(N)=O
Test System: CP335
Class Assignment: class 0

Molecule: C[N+](C)(C)CC(O)CC(=O)O (centres undefined)
Test System: CP335
Class Assignment: class 0

Molecule: CN(C)[C@H]1C(=O)C(C(=O)NCN2CCCC2)=C(O)[C@]2(O)C(=O)C3=C(O)c4c(O)cccc4[C@@](C)(O)[C@H]3C[C@@H]12
Test System: CP335
Class Assignment: class 0

Molecule: CC(C)N1CCN(c2ccc(OC[C@@H]3CO[C@@](Cn4cncn4)(c4ccc(Cl)cc4Cl)O3)cc2)CC1
Test System: CP335
Class Assignment: class 0

Molecule: CCCN[C@@H](C)C(=O)Nc1ccccc1C
Test System: CP335
Class Assignment: class 0

Molecule: CN[C@@H](CC(C)C)C(=O)N[C@@H]1C(=O)N[C@H](CC(N)=O)C(=O)N[C@@H]2C(=O)N[C@H]3C(=O)N[C@H](C(=O)N[C@H](C(=O)O)c4cc(O)cc(O)c4-c4cc3ccc4O)[C@H](O)c3ccc(c(Cl)c3)Oc3cc2cc(c3O[C@H]2O[C@@H](CO)[C@@H](O)[C@@H](O)[C@@H]2O[C@@H]2C[C@](C)(N)[C@H](O)[C@H](C)O2)Oc2ccc(cc2Cl)[C@@H]1O
Test System: CP335
Class Assignment: class 0

Molecule: CC(=O)O[C@@H](C)C[N+](C)(C)C
Test System: CP335
Class Assignment: class 0

Molecule: CCN(CC)CCC[C@H](C)Nc1ccnc2cc(Cl)ccc12
Test System: CP335
Class Assignment: class 1

Molecule: CC(=O)OCC1=C(C(=O)O)N2C(=O)[C@@H](NC(=O)CSc3ccncc3)[C@@H]2SC1
Test System: CP335
Class Assignment: class 0

Molecule: C[C@@H]1c2cccc(O)c2C(O)=C2C(=O)[C@@]3(O)C(O)=C(C(N)=O)C(=O)[C@@H](N(C)C)[C@@H]3[C@@H](O)[C@@H]21
Test System: CP335
Class Assignment: class 1

Molecule: NS(=O)(=O)c1cc([C@@]2(O)NC(=O)c3ccccc32)ccc1Cl
Test System: CP335
Class Assignment: class 0

Molecule: COCCc1ccc(OC[C@H](O)CNC(C)C)cc1
Test System: CP335
Class Assignment: class 0

Molecule: CCCN(CCC)C(=O)[C@@H](CCC(=O)O)NC(=O)c1ccccc1
Test System: CP335
Class Assignment: class 0

Molecule: CC1(C)S[C@@H]2[C@H](NC(=O)[C@H](C(=O)O)c3ccsc3)C(=O)N2[C@H]1C(=O)O
Test System: CP335
Class Assignment: class 0

Molecule: C[C@@H](C(=O)O)c1ccc(C(=O)c2cccs2)cc1
Test System: CP335
Class Assignment: class 0
